Reference for the values: patent US20040147788A1

- TARGET: ER (Homo sapiens)
- Construct: stably transfecting MCF-7 cells with the ERE-globin-tk-luc-SV-Neo plasmid; endogenous in cells; host or cells: MCF-7-Luc (MCF-7 stably transfected with ERE-globin-tk-luc-SV-Neo)
- Sequence (P03372 whole entry): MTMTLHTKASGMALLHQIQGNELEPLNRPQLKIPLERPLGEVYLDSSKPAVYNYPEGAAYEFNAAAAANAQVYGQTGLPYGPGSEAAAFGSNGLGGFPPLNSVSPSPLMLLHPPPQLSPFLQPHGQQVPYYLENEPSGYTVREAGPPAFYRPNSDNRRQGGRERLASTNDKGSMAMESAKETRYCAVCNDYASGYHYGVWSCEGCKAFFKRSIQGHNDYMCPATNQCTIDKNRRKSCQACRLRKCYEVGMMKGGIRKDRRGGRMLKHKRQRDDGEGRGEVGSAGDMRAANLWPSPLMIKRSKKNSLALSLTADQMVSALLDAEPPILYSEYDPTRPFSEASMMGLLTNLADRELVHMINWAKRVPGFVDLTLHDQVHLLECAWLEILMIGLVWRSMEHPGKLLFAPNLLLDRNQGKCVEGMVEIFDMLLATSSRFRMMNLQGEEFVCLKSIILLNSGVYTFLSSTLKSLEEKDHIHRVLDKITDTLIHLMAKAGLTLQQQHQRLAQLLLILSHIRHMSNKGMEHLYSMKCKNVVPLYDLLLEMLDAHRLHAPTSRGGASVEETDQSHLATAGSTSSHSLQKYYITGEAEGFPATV
- ASSAY_NOTES: ER-mediated transactivation, ERE-driven Luciferase reporter stable cell line (MCF-7-Luc); also: key: Ago: agonist; N.M.: not measurable
- Type: cell-based
- CONDITION_PARAMETERS: trans-stilbenes
MEASURED_QUANTITY: ER T.A. (transcriptional activity)

- Oc1ccc(C=Cc2cc(O)cc(O)c2)cc1 [Resveratrol, 3,5,4′-trihydroxystilbene, reference compound]: Ago
- COc1cc(/C=C/c2ccc(F)cc2)cc(OC)c1: N.M
- CCOc1ccc(/C=C/c2cc(OC)cc(OC)c2)cc1: N.M.
- Fc1ccc(/C=C/c2cc(F)cc(F)c2)cc1: N.M
- Clc1ccc(/C=C/c2cc(Cl)cc(Cl)c2)cc1: N.M
- FC(F)(F)c1ccc(/C=C/c2cc(C(F)(F)F)cc(C(F)(F)F)c2)cc1: N.M
- COc1ccc(/C=C/c2cc(Cl)cc(Cl)c2)cc1: N.M.
- CCCCOc1ccc(/C=C/c2cc(OC)cc(OC)c2)cc1: N.M.
- COc1ccc(/C=C/c2cc(OC)cc(OC)c2)cc1: Ago
- FC(F)(F)c1ccc(/C=C/c2cc(Cl)cc(Cl)c2)cc1: N.M.
- COc1ccc(/C=C/c2cc(F)cc(F)c2)cc1: N.M
